System: first instar Aedes aegypti larvae
Assay: Effect of NPF polypeptides on Aedes aegypti larvae (ingestion, mortality)
Format: in vivo
Settings: microtiter plate, peptide 2 mg/ml to 0.04 mg/ml with Brewer's yeast, mortality at 24 hour intervals for 3 to 7 days, read-out: LC50 (mM) ± SEM
No end group written: not given here.

Substance	Target system	Value relation sign	LC50, mM
ANRSPSLRLRF-NH2 [SEQ ID NO. 9]	first instar Aedes aegypti larvae	=	0.135
ARGPQLRLRF-NH2 [SEQ ID NO. 1]	first instar Aedes aegypti larvae	=	0.65
PIRSPSLRLRF-NH2 [SEQ ID NO. 13]	first instar Aedes aegypti larvae	=	0.589
ADRSPSLRLRF-NH2 [SEQ ID NO. 11]	first instar Aedes aegypti larvae	=	0.65
APQLRLRF-NH2 [SEQ ID NO. 7, Ala-Pro-Gln-Leu-Arg-Leu-Arg-Phe-amide]	first instar Aedes aegypti larvae	=	0.8
PSLRLRF-NH2 [SEQ ID NO. 19, Pro-Ser-Leu-Arg-Leu-Arg-Phe-amide]	first instar Aedes aegypti larvae	>	2.25
RSPSLRLRF-NH2 [SEQ ID NO. 17]	first instar Aedes aegypti larvae	=	0.82
AQRSPSLRLRF-NH2 [SEQ ID NO. 15]	first instar Aedes aegypti larvae	=	1.03
RPPTRFRF-NH2 [SEQ ID NO. 5, Arg-Pro-Pro-Thr-Arg-Phe-Arg-Phe-amide]	first instar Aedes aegypti larvae	=	0.61
LRLRF-NH2 [SEQ ID NO. 21, Leu-Arg-Leu-Arg-Phe-amide]	first instar Aedes aegypti larvae	>	2.8
